Cited source for all entries: ChEMBL document CHEMBL1155250

Biological target: 5-hydroxytryptamine receptor 6 (Homo sapiens)
Sequence (P50406 whole entry): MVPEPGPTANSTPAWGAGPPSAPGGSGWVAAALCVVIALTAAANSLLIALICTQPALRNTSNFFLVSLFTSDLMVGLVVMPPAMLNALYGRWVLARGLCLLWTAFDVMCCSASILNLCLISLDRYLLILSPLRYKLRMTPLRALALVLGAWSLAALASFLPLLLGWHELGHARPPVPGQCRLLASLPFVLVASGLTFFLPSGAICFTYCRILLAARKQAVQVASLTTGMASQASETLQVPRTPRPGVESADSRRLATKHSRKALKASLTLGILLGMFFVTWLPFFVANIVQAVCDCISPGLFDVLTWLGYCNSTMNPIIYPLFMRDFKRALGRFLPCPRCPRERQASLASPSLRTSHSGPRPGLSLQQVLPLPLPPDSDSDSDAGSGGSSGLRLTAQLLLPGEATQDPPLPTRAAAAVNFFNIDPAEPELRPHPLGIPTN
Assay: Agonist activity at human cloned 5HT6 receptor expressed in HeLa cells assessed as induction of adenylyl cyclase activity by RIA
# pEC50 values compiled below
Keep in mind that pEC50 stands for -log10 of concentration in molar terms.

1) CN(C)CCn1cc(S(=O)(=O)c2ccc(Cl)s2)c2cccnc21 7.49
2) NCCn1cc(S(=O)(=O)c2cccc(F)c2)c2cccnc21 7.62
3) CN(C)CCn1cc(S(=O)(=O)c2cc(Cl)cc(Cl)c2)c2cccnc21 7.55
4) NCCn1cc(S(=O)(=O)c2cccc(C(F)(F)F)c2)c2cccnc21 6.96
5) CN(C)CCn1cc(S(=O)(=O)c2cccs2)c2cccnc21 6.81

Consider `CN(C)CCn1cc(S(=O)(=O)c2cccc(Cl)c2)c2cccnc21` . Its measured pEC50 is 7.82

Summary for this molecule, `CN(C)CCn1cc(S(=O)(=O)c2ccc(F)cc2)c2cccnc21` : pEC50 is 7.52

// pEC50 value for `NCCn1cc(S(=O)(=O)c2cccc(Cl)c2)c2cccnc21` : 7.74

Lab book: pEC50 of `NCCn1cc(S(=O)(=O)c2ccccc2C(F)(F)F)c2cccnc21` noted as 7.07

pEC50 recorded for this molecule, `CN(C)CCn1cc(S(=O)(=O)c2ccccc2)c2ccccc21` , is 6.44

Sure, the documented pEC50 for `Cc1c(S(=O)(=O)c2ccccc2)c2cccnc2n1CCN(C)C` is 7.33
